- measured-target: HLA-A*02:12
- experiment: IEDB peptide-MHC binding, purified MHC/direct/fluorescence; filed as Kd, often an IC50 or EC50 that approximates it; bounds were set here for any values at or beyond the usual limits of such assays
- conditions: source organism: Giardia lamblia ATCC 50803
Quick list: Kd per entry.

Input line: Need Kd of `MHYGYNRAN` , thanks.
Output line: ≥ 20 µM

Proceed to the following item.
Input line: Any idea what Kd was measured for `APDGFYPFK` ?
Output line: ≥ 20 µM

---

- measured-target: HLA-B*27:05
- experiment: IEDB peptide-MHC binding, purified MHC/competitive/fluorescence; filed as Kd, often an IC50 or EC50 that approximates it; bounds were set here for any values at or beyond the usual limits of such assays
- conditions: source organism: Brucella melitensis bv. 1 str. 16M
metric: Kd

Input line: What Kd value was documented for this sequence, `TTRAVNMEV` ?
Output line: ≥ 5 µM

---

- measured-target: HLA-A*24:03
- experiment: IEDB peptide-MHC binding, purified MHC/direct/fluorescence; filed as Kd, often an IC50 or EC50 that approximates it; bounds were set here for any values at or beyond the usual limits of such assays
- conditions: source organism: Sudan ebolavirus - Uganda (2000)
metric: Kd

Input line: Would you mind telling me what Kd value was observed for `SQVRVPTVF` ?
Output line: ≥ 20 µM

---

- measured-target: HLA-A*01:01
- experiment: IEDB peptide-MHC binding, purified MHC/competitive/fluorescence; filed as Kd, often an IC50 or EC50 that approximates it; bounds were set here for any values at or beyond the usual limits of such assays
- conditions: source organism: Brucella melitensis bv. 1 str. 16M
metric: Kd

Input line: Item `TTRAVNMEV` with HLA-A*01:01 - Kd?
Output line: ≥ 5 µM

---

- measured-target: HLA-A*68:01
- experiment: IEDB peptide-MHC binding, purified MHC/competitive/radioactivity; filed as Kd, often an IC50 or EC50 that approximates it; bounds were set here for any values at or beyond the usual limits of such assays
- conditions: source organism: Mammarenavirus brazilense
metric: Kd

Input line: Fill blank: measured Kd of the sequence `KCFGNTALAK` is ____.
Output line: ≥ 22.5 µM

---

- measured-target: HLA-A*02:03
- experiment: IEDB peptide-MHC binding, purified MHC/competitive/radioactivity; filed as Kd, often an IC50 or EC50 that approximates it; bounds were set here for any values at or beyond the usual limits of such assays
- conditions: source organism: Mammarenavirus guanaritoense
metric: Kd (µM)
Field format: number, assumed µM, no unit text.

Input line: What value of Kd has been reported for the following sequence? `TNAEFTFQL`
Output line: 15

---

- measured-target: HLA-A*30:01
- experiment: IEDB peptide-MHC binding, purified MHC/competitive/radioactivity; filed as Kd, often an IC50 or EC50 that approximates it; bounds were set here for any values at or beyond the usual limits of such assays
- conditions: source organism: Mammarenavirus brazilense
metric: Kd

Input line: For `EWIFRALKY` , what is its reported Kd?
Output line: ≥ 38 µM

---

- measured-target: HLA-A*02:19
- experiment: IEDB peptide-MHC binding, purified MHC/direct/fluorescence; filed as Kd, often an IC50 or EC50 that approximates it; bounds were set here for any values at or beyond the usual limits of such assays
- conditions: source organism: Cryptosporidium parvum Iowa II
Kd values for the sequences below.

Input line: Query for HLA-A*02:19: what Kd does the record show for `MPMSMPIPM` ?
Output line: ≥ 20 µM

Input line: For the record `LPLESCFGV` , what value of Kd is listed for HLA-A*02:19?
Output line: ≥ 20 µM

Let us move to another entry and its Kd.
Input line: Record `GFPFFIMPK` : what is its Kd with HLA-A*02:19?
Output line: ≥ 20 µM

---

- measured-target: HLA-B*27:05
- experiment: IEDB peptide-MHC binding, purified MHC/direct/fluorescence; filed as Kd, often an IC50 or EC50 that approximates it; bounds were set here for any values at or beyond the usual limits of such assays
- conditions: source organism: Mammarenavirus lassaense
metric: Kd

Input line: Provide value of Kd for this record tested with HLA-B*27:05: `KREEHYIVL`
Output line: ≥ 20 µM

---

- measured-target: HLA-B*08:01
- experiment: IEDB peptide-MHC binding, purified MHC/competitive/radioactivity; filed as Kd, often an IC50 or EC50 that approximates it; bounds were set here for any values at or beyond the usual limits of such assays
- conditions: source organism: Dengue virus 1 Singapore/S275/1990
metric: pKd
Worth noting: pKd values are minus log10 of concentrations stated in mol/L.

Input line: # pKd lookup, item `MAMVLSIVSL`
Output line: 6.08

---

- measured-target: HLA-B*58:01
- experiment: IEDB peptide-MHC binding, purified MHC/direct/fluorescence; filed as Kd, often an IC50 or EC50 that approximates it; bounds were set here for any values at or beyond the usual limits of such assays
- conditions: source organism: Influenza A virus (A/swine/Miyagi/5/2003(H1N2))
metric: Kd

Input line: Could you share which Kd value was measured for `GTEKLTITY` ?
Output line: ≥ 20 µM

---

- measured-target: HLA-B*51:01
- experiment: IEDB peptide-MHC binding, purified MHC/competitive/radioactivity; filed as Kd, often an IC50 or EC50 that approximates it; bounds were set here for any values at or beyond the usual limits of such assays
- conditions: source organism: Dengue virus 3 Sri Lanka/1266/2000
metric: Kd (nM)
Give just the numeric value; nM need not be written.

Input line: Request the reported Kd associated with `VPLQWIASAI`
Output line: 21.7

---

- measured-target: HLA-A*26:01
- experiment: IEDB peptide-MHC binding, purified MHC/competitive/radioactivity; filed as Kd, often an IC50 or EC50 that approximates it; bounds were set here for any values at or beyond the usual limits of such assays
- conditions: source organism: Dengue virus 4 Dominica/814669/1981
metric: Kd

Input line: Kd lookup needed for `FTPEARNSTF` , thanks.
Output line: 518 nM

---

- measured-target: HLA-A*02:06
- experiment: IEDB peptide-MHC binding, purified MHC/competitive/radioactivity; filed as Kd, often an IC50 or EC50 that approximates it; bounds were set here for any values at or beyond the usual limits of such assays
- conditions: source organism: Homo sapiens
pKd: −log10 of the molar value.
// reported pKd for each item listed

Worked examples, 5 sequences total:
Input line: Requested field: pKd. Item: `PLPNFSSLNL`
Output line: ≤ 4.25

Input line: Given the entry `DLMSSKDDV` , report its measured pKd.
Output line: ≤ 3.88

Input line: Which pKd is reported for this sequence? `ILKNSQGEEV`
Output line: ≤ 4.14

Input line: If you can, please state the reported pKd value of `GLSQRHEEKV` .
Output line: ≤ 4.27

Input line: Report pKd for `ELRSKREQEV` please.
Output line: ≤ 4.14

For the next question, use this sequence.
Input line: Entry `EMRQKHSQAV` has what pKd?
Output line: ≤ 4.14

---

- measured-target: HLA-B*27:03
- experiment: IEDB peptide-MHC binding, purified MHC/competitive/fluorescence; filed as Kd, often an IC50 or EC50 that approximates it; bounds were set here for any values at or beyond the usual limits of such assays
- conditions: source organism: Orthohantavirus tulaense
pKd: −log10 of the molar value.
metric: pKd

Input line: Find the recorded pKd belonging to `SLFGAAVSL` and report it.
Output line: ≤ 4.70

---

- measured-target: HLA-B*54:01
- experiment: IEDB peptide-MHC binding, purified MHC/competitive/radioactivity; filed as Kd, often an IC50 or EC50 that approximates it; bounds were set here for any values at or beyond the usual limits of such assays
- conditions: source organism: Mammarenavirus machupoense
metric: Kd

Input line: Query: Kd; subject: `VPINVAEAY`
Output line: ≥ 50.5 µM

---

- measured-target: HLA-A*31:01
- experiment: IEDB peptide-MHC binding, purified MHC/direct/fluorescence; filed as Kd, often an IC50 or EC50 that approximates it; bounds were set here for any values at or beyond the usual limits of such assays
- conditions: source organism: Bacillus anthracis
pKd: −log10 of the molar value.
metric: pKd

Input line: What pKd appears in the records for this sequence with HLA-A*31:01? `DTVLFNAGL`
Output line: ≤ 4.70

---

- measured-target: HLA-B*18:01
- experiment: IEDB peptide-MHC binding, purified MHC/competitive/fluorescence; filed as Kd, often an IC50 or EC50 that approximates it; bounds were set here for any values at or beyond the usual limits of such assays
- conditions: source organism: Pan troglodytes
metric: Kd

Input line: Need Kd, item `YYFSYPLFV`
Output line: ≥ 20 µM

---

- measured-target: HLA-B*39:01
- experiment: IEDB peptide-MHC binding, purified MHC/competitive/fluorescence; filed as Kd, often an IC50 or EC50 that approximates it; bounds were set here for any values at or beyond the usual limits of such assays
- conditions: source organism: Four Corners hantavirus
metric: Kd

Input line: Find the recorded Kd belonging to `EKLKKKSAF` and report it.
Output line: ≥ 20 µM

All values here come from the Immune Epitope Database (IEDB).
